studyTarget: mouse HDAC6 (Mus musculus)
Construct: HA; made in house; host or cells: 293T cells, transient transfection; anti-HA immunoprecipitation and HA peptide elution
Sequence (Q9Z2V5 whole entry): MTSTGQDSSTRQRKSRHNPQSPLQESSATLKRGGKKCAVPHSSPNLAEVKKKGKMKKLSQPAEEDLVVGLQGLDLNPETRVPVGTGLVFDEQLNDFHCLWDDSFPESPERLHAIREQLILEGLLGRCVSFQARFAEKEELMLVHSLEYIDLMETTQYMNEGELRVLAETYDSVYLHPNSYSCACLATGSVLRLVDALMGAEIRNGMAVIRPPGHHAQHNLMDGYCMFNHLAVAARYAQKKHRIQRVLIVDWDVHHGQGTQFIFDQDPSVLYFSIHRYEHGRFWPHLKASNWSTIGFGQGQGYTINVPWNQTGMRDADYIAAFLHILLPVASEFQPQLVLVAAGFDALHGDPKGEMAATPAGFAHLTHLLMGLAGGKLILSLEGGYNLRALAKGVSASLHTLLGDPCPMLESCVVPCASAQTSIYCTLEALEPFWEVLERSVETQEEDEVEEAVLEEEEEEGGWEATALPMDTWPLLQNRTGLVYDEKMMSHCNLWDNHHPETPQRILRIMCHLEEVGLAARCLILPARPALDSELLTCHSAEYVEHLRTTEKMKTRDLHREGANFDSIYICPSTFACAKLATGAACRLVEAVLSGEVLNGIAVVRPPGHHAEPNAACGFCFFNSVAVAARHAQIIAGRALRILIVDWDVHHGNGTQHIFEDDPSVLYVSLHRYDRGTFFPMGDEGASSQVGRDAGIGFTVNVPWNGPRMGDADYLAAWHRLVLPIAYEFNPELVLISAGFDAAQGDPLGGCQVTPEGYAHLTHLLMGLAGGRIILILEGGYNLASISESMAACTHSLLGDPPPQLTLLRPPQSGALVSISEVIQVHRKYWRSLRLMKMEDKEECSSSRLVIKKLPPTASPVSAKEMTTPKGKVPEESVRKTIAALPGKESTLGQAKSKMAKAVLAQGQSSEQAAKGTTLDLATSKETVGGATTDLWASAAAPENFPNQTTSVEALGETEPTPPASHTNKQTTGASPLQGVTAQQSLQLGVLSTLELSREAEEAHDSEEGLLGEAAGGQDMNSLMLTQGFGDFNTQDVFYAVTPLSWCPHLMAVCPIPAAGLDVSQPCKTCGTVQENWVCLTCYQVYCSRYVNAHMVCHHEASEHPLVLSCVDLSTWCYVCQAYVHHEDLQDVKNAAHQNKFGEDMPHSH
method: HDAC inhibitory activity in vitro (coumarin-labeled acetylated histone peptide), HDAC6
Format: biochemical
studyConditions: Table 1; 37° C., 30 minutes; read-out: IC50 (μM) HDAC6
Where a SMILES comes first, the peptide text is derived from it. [ ]: non-standard residue; d: D form. hLys(Nζ-OH,Nζ-For) = N[C@@H](CCCCCN(O)C=O)C(=O)O; Phe(4-NH2) = Nc1ccc(C[C@H](N)C(=O)O)cc1; Asu = N[C@@H](CCCCCC(=O)O)C(=O)O

compound	IC50
CC[C@H](C)[C@@H]1NC(=O)[C@@H](Cc2ccc(OC)cc2)NC(=O)[C@H](CCCCCC(=O)O)NC(=O)[C@H]2CCCN2C1=O [COOH, cyclo(L-Asu-D-Tyr(Me)-L-Ile-D-Pro)] (cyclo([Asu][dY](Me)I[dP]))	> 500 µM
CC[C@H](C)[C@@H]1NC(=O)[C@@H](Cc2ccc(OC)cc2)NC(=O)[C@H](CCCCCN(O)C=O)NC(=O)[C@@H]2CCCN2C1=O [N(OH)COH Cyclo(X-y(Me)-I-P), n = 5] (cyclo([hLys(Nζ-OH,Nζ-For)][dY](Me)IP))	0.029 µM
CC[C@H](C)[C@@H]1NC(=O)[C@@H](Cc2ccc(OC)cc2)NC(=O)[C@H](Cc2ccc(N)cc2)NC(=O)[C@H]2CCCN2C1=O [Aph, cyclo(-L-Aph-D-Tyr(Me)-L-Ile-D-Pro-)] (cyclo(I[dP][Phe(4-NH2)][dY](Me)))	> 500 µM
CC[C@H](C)[C@@H]1NC(=O)[C@@H](Cc2ccc(OC)cc2)NC(=O)[C@H](CCCCCC(=O)OC)NC(=O)[C@H]2CCCN2C1=O [COOMe] (cyclo([Asu](OMe)[dY](Me)I[dP]))	> 500 µM
